Substrate: CCCC(=O)Oc1ccc([N+](=O)[O-])cc1
Experiment: hydrolysis kinetics
Format: biochemical, Archaeoglobus fulgidus
Conditions: 37°C
metric name: kcat/Km (M⁻¹ s⁻¹)
# value in M⁻¹ s⁻¹; strip the unit string

Please give the measured kcat/Km for this protein: AFEST (Archaeoglobus fulgidus DSM 4304; V293E) (protein, pET-28a(+) in E. coli BL21-CodonPlus(DE3), Ni-NTA purified; 5' primer starts … (MLDMPI)) MLDMPIDPVYYQLAEYFDSLPKFDQFSSAREYREAINRIYEERNRQLSQHERVERVEDRTIKGRNGDIRVRVYQQKPDSPVLVYYHGGGFVICSIESHDALCRRIARLSNSTVVSVDYRLAPEHKFPAAVYDCYDATKWVAENAEELRIDPSKIFVGGDSAGGNLAAAVSIMARDSGEDFIKHQILIYPVVNFVAPTPSLLEFGEGLWILDQKIMSWFSEQYFSREEDKFNPLASVIFADLENLPPALIITAEYDPLRDEGEVFGQMLRRAGVEASIVRYRGVLHGFINYYPELKAARDAINQIAALLVFD
1.14e+07
